Origin of measurements: patent US20170296650A1

Biological target: hCMV UL128 + UL130 + UL131A (HEK293T co-transfectant) (hCMV, UniProt P16837 1-171; P16772 1-214)
Sequence (P16837 whole entry, chain 1 of 2): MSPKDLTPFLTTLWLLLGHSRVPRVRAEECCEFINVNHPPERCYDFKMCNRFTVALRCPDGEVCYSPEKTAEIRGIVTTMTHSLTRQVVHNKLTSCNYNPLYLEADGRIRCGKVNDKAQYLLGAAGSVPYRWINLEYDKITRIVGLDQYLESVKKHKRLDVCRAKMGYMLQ
Sequence (P16772 whole entry, chain 2 of 2): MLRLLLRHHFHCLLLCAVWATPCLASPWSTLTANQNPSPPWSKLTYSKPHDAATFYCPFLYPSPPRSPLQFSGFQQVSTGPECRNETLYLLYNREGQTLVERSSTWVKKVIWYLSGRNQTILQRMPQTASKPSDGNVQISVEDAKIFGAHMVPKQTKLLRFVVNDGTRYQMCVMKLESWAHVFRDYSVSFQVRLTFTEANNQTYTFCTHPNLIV
Assay: cell-based or functional assay
OBSERVATION_TYPE: 50% neutralization VR1814, ARPE

Request: Return reported 50% neutralization VR1814, ARPE; argument: 7I13 (antibody, V domains shown, human IgG; also called 7113) VH: QVQLVESGGGVVQPGRSLRLSCAASGFTFSNYGMHWVRQGPGKGLEWVAVISYDASSKYYTDSVQGRFTISRDNSKNTLFLQMNSLRGEDTAVYYCAKALRYLDWFLSDPFDYWGQGTLVTVSS VL: EIVLTQSPGTLSLSPGERATLSCRASQSVSSDFLAWYQQKPGQAPRLLIYGASSRATGIPDRFSGSGSGTDFTLTISRLEPEDFAVYYCQQYAASPPFGQGTRLEIK
Result: < 0.01 µg/mL

Request: Return reported 50% neutralization VR1814, ARPE; argument: 7B13 (antibody, V domains shown, human IgG) VH: QVQLVESGGGVVQPGGSLRLSCAASGFSFSNYGMHWVRQAPGKGLEWVALIPSDGNYQYYTDSVKGRFTVSRDNSRNTLYLQMKSLRAEDTARYHCAHLGGGLFDFWGQGTLVTVSS VL: QSALNQPRSVSGSPGQSVSISCTGSSSDVGGYEFVSWYQHHPGKAPKLIIYDVDKRPSGVPDRFSGSRSGDTASLTISGLQAEDEADYYCYSSADTWVFGGGTKLTVL
Result: < 0.001 µg/mL

Request: Return reported 50% neutralization VR1814, ARPE; argument: 8J16 (antibody, V domains shown, human IgG; also called 8J16-biotin) VH: QVQLQESGPGLVKPSETLSLTCSVSGGFTSSYYWSWIRQAPGKGLEWIGYVYYGESTDYNPSLKSRATISIDTSKNQFSLKLSSVTAADTAVYYCAREVDKRGFDYWGQGALVTVSS VL: EIVLTQSPGTLSLSPGERATLSCRASQSVSGGYLAWYQQEPGQAPRLVIYGASSRATGIPDRFSASGSGTDFTLTITRLEPEDFAVYYCQQYGRTPLTFGGGTKVEIK
Result: < 0.001 µg/mL
